Biological target: Mu-type opioid receptor (Homo sapiens, UniProt P35372)
Sequence (P35372 whole entry): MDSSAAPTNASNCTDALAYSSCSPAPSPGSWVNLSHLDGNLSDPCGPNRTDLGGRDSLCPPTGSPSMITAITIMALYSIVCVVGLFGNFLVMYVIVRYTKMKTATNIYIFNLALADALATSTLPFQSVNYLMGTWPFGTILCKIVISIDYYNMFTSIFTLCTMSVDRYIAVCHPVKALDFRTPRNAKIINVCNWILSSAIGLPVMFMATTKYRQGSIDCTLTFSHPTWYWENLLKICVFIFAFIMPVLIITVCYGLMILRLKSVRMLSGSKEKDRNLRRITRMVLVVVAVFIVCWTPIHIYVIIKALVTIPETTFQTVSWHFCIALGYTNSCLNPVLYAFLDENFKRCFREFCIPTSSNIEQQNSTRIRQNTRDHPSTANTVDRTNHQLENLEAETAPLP
Test: Agonistic activity against human opioid Mu receptor transfected into Chinese hamster ovary (CHO) cells using [3H]-DAMGO as radioligand
test.readout: EC50 (nM)
Give just the number in nM; leave the unit off.

Reference set (4 entries):
compound="Cc1ncc2c(n1)C1Oc3c(O)ccc4c3C13CCN(C)C(C4)C3(O)C2 (stereo not given)" result_value=71.9
compound="CN1CCC23c4c5ccc(O)c4OC2c2nc(-c4ccccc4)ncc2CC3(O)C1C5 (stereo not given)" result_value=58.4
compound="CN1CCC23c4c5ccc(O)c4OC2c2n[nH]cc2CC3(O)C1C5 (stereo not given)" result_value=19.3
compound="CN1CCC23c4c5ccc(O)c4OC2c2nc(N)ncc2CC3(O)C1C5 (stereo not given)" result_value=75.2

Moving on to another compound below.
**Q:** Data request, read-out EC50, for CN1CCC23c4c5ccc(O)c4OC2c2[nH]c(=O)ncc2CC3(O)C1C5 (stereo not given)
**A:** 110

This collection of values is drawn from ChEMBL document CHEMBL1131901.
